Entries annotated with measured pIC50
- subject_of_test: human LFA-1 (Homo sapiens)
- Construct: endogenous in cells; The ICAM-1 fusion partner is made in the baculovirus system
- Sequence (P20701 26-1170): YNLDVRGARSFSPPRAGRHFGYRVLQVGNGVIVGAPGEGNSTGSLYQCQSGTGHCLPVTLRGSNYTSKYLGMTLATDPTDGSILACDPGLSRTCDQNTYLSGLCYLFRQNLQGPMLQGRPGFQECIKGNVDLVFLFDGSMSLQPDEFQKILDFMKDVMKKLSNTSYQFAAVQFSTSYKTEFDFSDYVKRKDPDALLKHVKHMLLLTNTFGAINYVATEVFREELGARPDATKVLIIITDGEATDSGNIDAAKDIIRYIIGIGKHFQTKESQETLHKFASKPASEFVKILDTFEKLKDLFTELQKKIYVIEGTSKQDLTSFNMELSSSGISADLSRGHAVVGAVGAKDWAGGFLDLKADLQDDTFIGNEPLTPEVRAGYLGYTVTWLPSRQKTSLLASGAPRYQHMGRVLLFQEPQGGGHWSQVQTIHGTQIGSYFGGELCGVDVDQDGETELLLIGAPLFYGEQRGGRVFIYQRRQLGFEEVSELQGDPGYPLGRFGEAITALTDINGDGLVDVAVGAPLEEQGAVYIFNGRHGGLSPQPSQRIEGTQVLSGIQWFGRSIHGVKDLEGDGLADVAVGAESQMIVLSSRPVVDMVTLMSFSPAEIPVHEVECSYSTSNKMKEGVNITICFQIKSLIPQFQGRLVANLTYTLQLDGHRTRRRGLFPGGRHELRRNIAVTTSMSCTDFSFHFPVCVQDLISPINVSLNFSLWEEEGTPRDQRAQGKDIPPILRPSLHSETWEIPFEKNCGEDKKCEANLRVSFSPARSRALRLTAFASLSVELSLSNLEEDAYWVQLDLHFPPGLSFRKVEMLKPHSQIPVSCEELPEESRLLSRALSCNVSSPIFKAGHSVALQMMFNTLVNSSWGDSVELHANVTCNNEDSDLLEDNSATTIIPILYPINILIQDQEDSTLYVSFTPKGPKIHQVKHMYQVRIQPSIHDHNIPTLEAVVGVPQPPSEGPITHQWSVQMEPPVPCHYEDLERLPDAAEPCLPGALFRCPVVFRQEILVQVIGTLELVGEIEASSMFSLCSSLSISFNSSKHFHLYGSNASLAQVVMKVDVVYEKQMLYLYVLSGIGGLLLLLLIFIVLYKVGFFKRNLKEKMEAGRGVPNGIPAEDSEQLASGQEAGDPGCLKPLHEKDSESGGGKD
- Sequence (P05107 23-769 partner): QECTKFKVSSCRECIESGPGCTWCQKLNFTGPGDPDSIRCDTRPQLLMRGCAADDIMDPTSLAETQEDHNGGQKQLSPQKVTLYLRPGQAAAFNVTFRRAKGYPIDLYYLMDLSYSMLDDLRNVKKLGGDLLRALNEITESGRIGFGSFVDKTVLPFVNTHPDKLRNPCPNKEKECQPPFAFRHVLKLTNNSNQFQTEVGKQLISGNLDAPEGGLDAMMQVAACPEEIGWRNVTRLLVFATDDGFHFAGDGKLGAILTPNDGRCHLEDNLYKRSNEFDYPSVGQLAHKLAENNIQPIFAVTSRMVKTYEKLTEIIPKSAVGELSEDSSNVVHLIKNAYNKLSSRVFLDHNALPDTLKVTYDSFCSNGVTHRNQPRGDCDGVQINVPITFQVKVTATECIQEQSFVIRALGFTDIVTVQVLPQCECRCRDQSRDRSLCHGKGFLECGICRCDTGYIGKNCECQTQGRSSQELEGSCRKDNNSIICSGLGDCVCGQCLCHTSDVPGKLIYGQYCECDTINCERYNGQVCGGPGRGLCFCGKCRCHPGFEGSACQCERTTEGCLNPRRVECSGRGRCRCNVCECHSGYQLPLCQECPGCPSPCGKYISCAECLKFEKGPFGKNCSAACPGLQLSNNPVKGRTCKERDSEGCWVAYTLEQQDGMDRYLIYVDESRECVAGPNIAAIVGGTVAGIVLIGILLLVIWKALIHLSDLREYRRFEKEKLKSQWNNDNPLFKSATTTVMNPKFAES
- experiment_notes: In vitro cell free assay: binding of soluble human ICAM-1 to immobilized human LFA-1
- assay_conditions: immobilized human LFA-1, biotinylated recombinant ICAM-1, read-out: IC50, inhibition of adhesion of LFA-1 to ICAM-1
- Description: A. In Vitro TEST SYSTEM (Cell Free Assay) The assay determines the binding of soluble human ICAM-1 to immobilized human LFA-1. […] Purified LFA-1 is diluted 1:20 in phosphate buffered saline (PBS) containing 2 mM MgCl2, pH 7.4 and coated onto microtiter plates (Nunc) at 37° for 3 hours. […] The reaction is stopped after 20 minutes and bound ICAM-1 is determined by measuring the optical density at 405 nm in a microplate reader.
// field semantics: pIC50 = negative decimal log of concentration (mol/L)

INSERT INTO assay_data (compound, measured_number) VALUES
  ('C[C@@H]1CCN([C@H](Cc2cccc3ccccc23)C(N)=O)C(=O)[C@H](c2cccc(Cl)c2)N1C(=O)CNC(=O)[C@@H]1CCCN1 [Example 14]', 7.05);

Query: # lookup: pIC50 of C[C@@H]1CCN([C@H](Cc2cccc3ccccc23)C(N)=O)C(=O)[C@H](c2cccc(Cl)c2)N1C(=O)CNC(=O)c1ccccc1 [Example 13]
Response: 6.37
